# assay-method-text: yeast display, Sf9 membrane polyspecificity reagent, FACS + sequencing; frameworks hold sequencing errors

| sequence-code | polyreactivity (PSR sort gate) |
| --- | --- |
| QVQLVESGGGLVQAGGSLRLSCAASGRIFPVYAMVSYRQAPGKERELVAAISKRDGSTSYADSVKGRFTISRDNAKNTVYLQMHSLKPEDTAVYYCNVLGYGSSYDYWGQGTQVTVSS | low polyreactivity |
| QVQLVESGGGLVQAGGSLRLSCAASGSIFAVNAMGWYRQAPGKERELVAAISWRDTGTYYADSVKGRFTISRDNAKNTVYLQMNSLKPEDTAVYYCAADAQVNPYYPDEYWGQGTQVTVSS | low polyreactivity |

* * *

# assay-method-text: yeast display, Sf9 membrane polyspecificity reagent, FACS + sequencing; frameworks hold sequencing errors
endpoint-label: polyreactivity (PSR sort gate)

Would you please look over these solved cases?
| sequence-code | result-value |
| --- | --- |
| QVQLVESGGGLVQAGGSLRLSCAASGRTFGRYAMGWYRQAPGKERELVAAISSSGGRTNYADSVKGRFTISRDNAKNTVYLQMNSLKPEDTAVYYCAAAGQRPYEKGDYWGQGTQVTVSS | low polyreactivity |
| HVQLVESGGGLVQAGGSLRLTCAASGFSYGYYAMGWYRQAPGKEWELVATISSGDNTYYADSVKGRFTSSRDNAKNTVYLQMNSLKPEDTAVYYCAARYPHYFVRGGYWGQGTQVTVSS | high polyreactivity |
| QVQHVESGGGLVQAGGSLRLSCAASGSIIRGNCMGWYRQAPGKERELVAAISRSGGRTYYADSVKGRFTFSRDNAKNTVYLQMNSLKPEDTAVYYFAKDRSGSYYNFPEYDYWGQGTQVTVSS | high polyreactivity |
| QVQLVESGGGLVQAGGSLRLSCAASGSIFATYAMGWYRQAPGKERELVAAISRSGGSTNYADSVKGRFTISRDNAKNTVYLQMNSLKPEDTAVYYCAAVRPHWYGQGWALYWFEYWGQGTQVTVSS | low polyreactivity |

Consider the additional sequence presented here.
Quick note, polyreactivity (PSR sort gate) for `QVHLVESVGGLVQAGGSLRLSCAASGGIFCVYAMGWYRQAPGKERELVAAISNSDTSTSYADSVKGRFTISRDNAKNTVYLQMNCLKPEVTAVYYCNADSPSLSGDYWGQGTQVTVSS` landed at low polyreactivity

* * *

# assay-method-text: yeast display, Sf9 membrane polyspecificity reagent, FACS + sequencing; frameworks hold sequencing errors
endpoint-label: polyreactivity (PSR sort gate)

Would you please look over these solved cases?
| sequence-code | polyreactivity (PSR sort gate) |
| --- | --- |
| QVQHVESGGGLVQAGGSLRLSCAASGSTFRYYTMGWYRQAPGKERELVADITIGGSTYYADSVKGRFTISRDNAKNTVYLQMNSLKPEDTAVYYCAARSTGGRIFATGVAYDYWGQGTQVTVST | low polyreactivity |
| QVHHVESGGGLVQAGGSLRLSCAASGRIFSYYAMGRYRPAPGKERELVAAITSRGTRTYYADSVKGRFTISRDNAKNTVYLQMNSLKPDDTAVYYCNVVSDIRLYFRFAYDYWGQGTQVTVSS | high polyreactivity |
| QVQLVESGGGLVQAGGSLRLSCAASGNIFTKYAMGWYRQAPGKERELVAAITWSGGSTYYADSVKGRFTISRDNAKNTVDLQMNILKPEDTAVYYCATAHVFRRDKPYDYWGQGTQVTVSS | high polyreactivity |
| QVQVVESGGGLVQAGGSLRLSCAASGFIFNTHAMGWYRQAPGKERELVAAITWTGDSTYYADSVKGRFTISRDYAKNTVYLQMNSLKPEDTAVYYCNAATGDWETSIWTYPFWAEMYYWGQGTQVNVSS | low polyreactivity |
| QVQLVESGRGLVQAGGSLRLSCAASGSTFHGYPMGWYRQEPGKERELVAAITSGDSTNYADSVKGRYTISRDNAKNTVYLQMNSLKPEDTAVYYCAALQADRDRYPEFDLMDYWGQGTQVTVSS | low polyreactivity |

Consider the additional sequence presented here.
Quick note, polyreactivity (PSR sort gate) for `QVQLVESGGGLVQAGGSLRLSCAASGSIFGSNAMGWYRQAPGKERELVAAITNTGRTNYADSVKGRFTISRDYAKNTVYLQMNSLKPEDTAVYYCNADWRRSHAYGYWGQGTQVTVSS` landed at low polyreactivity
